# TEST_TARGET: T1, IL-13 (in-house) (UniProt P35225 35-146, limits assumed)
# T1 construct: SPR analyte
# T1 sequence (P35225 35-146 limits assumed): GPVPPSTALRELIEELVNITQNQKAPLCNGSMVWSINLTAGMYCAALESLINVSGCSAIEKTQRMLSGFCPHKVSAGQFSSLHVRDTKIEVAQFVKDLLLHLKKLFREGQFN
# EXPERIMENT_SUMMARY: SPR (BIAcore T200), Fab captured on anti-Fab chip, IL-13 as analyte, 25 C, 1:1 model
ENDPOINT_NAME: kon (M⁻¹ s⁻¹)

>>> endpoint_result("anti-IL-13 Fab variant CDR H3 D95A (Fab, name in Kabat numbering, V domains shown, Fab; variable domains only; Kabat numbering) VH: EVTLRESGPALVKPTQTLTLTCTVSGFSLSAYSVNWIRQPPGKALEWLAMIWGDGKIVYNSALKSRLTISKDTSKNQVVLTMTNMDPVDTATYYCAGAGYYPYAMDNWGQGSLVTVSS VL: DIVLTQSPDSLSVSLGERATINCRASKSVDSYGNSFMHWYQQKPGQPPKLLIYLASNLESGVPDRFSGSGSGTDFTLTISSLQAEDVAVYYCQQNNEDPRTFGGGTKVEIK")
882000
>>> endpoint_result("anti-IL-13 Fab variant CDR L3 R96A (Fab, V domains shown, Fab; variable domains only; Kabat numbering) VH: EVTLRESGPALVKPTQTLTLTCTVSGFSLSAYSVNWIRQPPGKALEWLAMIWGDGKIVYNSALKSRLTISKDTSKNQVVLTMTNMDPVDTATYYCAGDGYYPYAMDNWGQGSLVTVSS VL: DIVLTQSPDSLSVSLGERATINCRASKSVDSYGNSFMHWYQQKPGQPPKLLIYLASNLESGVPDRFSGSGSGTDFTLTISSLQAEDVAVYYCQQNNEDPATFGGGTKVEIK")
825000
>>> endpoint_result("anti-IL-13 Fab variant CDR L3 D94A (Fab, V domains shown, Fab; variable domains only; Kabat numbering) VH: EVTLRESGPALVKPTQTLTLTCTVSGFSLSAYSVNWIRQPPGKALEWLAMIWGDGKIVYNSALKSRLTISKDTSKNQVVLTMTNMDPVDTATYYCAGDGYYPYAMDNWGQGSLVTVSS VL: DIVLTQSPDSLSVSLGERATINCRASKSVDSYGNSFMHWYQQKPGQPPKLLIYLASNLESGVPDRFSGSGSGTDFTLTISSLQAEDVAVYYCQQNNEAPRTFGGGTKVEIK")
"1.24e+06"
